Species: Homo sapiens
Method Notes: Inhibition of EGFR L858R/T790M double mutant (unknown origin) measured at 1 uM by ELISA
In this section we review reported inhibition values for a set of molecules.

>  <Compound>
COc1cc(NC(=O)CN2CCN(CCO)CC2)ccc1Nc1nccc(N2CCc3sccc3C2)n1

>  <inhibition>
45.2%

$$$$
>  <Compound>
C=CC(=O)Nc1cc(Nc2nccc(N3CCc4sccc4C3)n2)c(OC)cc1N1CCN(CC)CC1

>  <inhibition>
15.8%

$$$$
>  <Compound>
CCC(=O)Nc1cc(Nc2nccc(N3CCc4sccc4C3)n2)c(OC)cc1N(C)CCN(C)C

>  <inhibition>
82.2%

$$$$
>  <Compound>
COc1cc(NC(=O)CN2CCOCC2)ccc1Nc1nccc(N2CCc3sccc3C2)n1

>  <inhibition>
13.9%

$$$$
>  <Compound>
COc1cc(NC(=O)CN(C)C)ccc1Nc1nccc(N2CCc3sccc3C2)n1

>  <inhibition>
22.5%

$$$$
>  <Compound>
C=CC(=O)Nc1cc(Nc2nccc(N3CCc4sccc4C3)n2)c(OC)cc1N1CCOCC1

>  <inhibition>
50.6%

$$$$
>  <Compound>
COc1cc(NC(=O)CN2CCN(C)CC2)ccc1Nc1nccc(N2CCc3sccc3C2)n1

>  <inhibition>
58.3%

$$$$
>  <Compound>
C=CC(=O)Nc1cc(Nc2nccc(N3CCc4sccc4C3)n2)c(OC)cc1N1CCN(C)CC1

>  <inhibition>
56.5%

$$$$
>  <Compound>
COc1cc(NC(=O)CN2CCC(C)CC2)ccc1Nc1nccc(N2CCc3sccc3C2)n1

>  <inhibition>
26.1%

$$$$
>  <Compound>
COc1cc(NC(=O)CN(C)CCN(C)C)ccc1Nc1nccc(N2CCc3sccc3C2)n1

>  <inhibition>
69.7%

$$$$
>  <Compound>
C=CC(=O)Nc1cc(Nc2nccc(N3CCc4sccc4C3)n2)c(OC)cc1N(CC)CC

>  <inhibition>
42.6%

$$$$
>  <Compound>
C=CC(=O)Nc1cc(Nc2nccc(N3CCc4sccc4C3)n2)c(OC)cc1N(C)CCN(C)C

>  <inhibition>
76.3%

$$$$
>  <Compound>
C=CC(=O)Nc1cc(Nc2nccc(-c3cn(C)c4ccccc34)n2)c(OC)cc1N(C)CCN(C)C

>  <inhibition>
99.5%

$$$$
>  <Compound>
C=CC(=O)Nc1cc(Nc2nccc(N3CCc4sccc4C3)n2)c(OC)cc1N1CCCC1

>  <inhibition>
43.5%

$$$$
>  <Compound>
C=CC(=O)Nc1cc(Nc2ncc(Cl)c(N3CCc4sccc4C3)n2)c(OC)cc1N(C)CCN(C)C

>  <inhibition>
97%

$$$$
>  <Compound>
CCN(CC)C/C=C/C(=O)Nc1ccc(OC)c(Nc2nccc(N3CCc4sccc4C3)n2)c1

>  <inhibition>
77.5%

$$$$
>  <Compound>
COc1ccc(NC(=O)/C=C/CN(C)C)cc1Nc1nccc(N2CCc3sccc3C2)n1

>  <inhibition>
80.1%

$$$$
>  <Compound>
C=CC(=O)Nc1cc(Nc2nccc(N3CCc4sccc4C3)n2)c(OC)cc1N(C)C

>  <inhibition>
18.2%

$$$$
>  <Compound>
CCC(=O)Nc1cc(Nc2ncc(Cl)c(N3CCc4sccc4C3)n2)c(OC)cc1N(C)CCN(C)C

>  <inhibition>
99.2%

$$$$
>  <Compound>
CCN1CCN(CC(=O)Nc2ccc(Nc3nccc(N4CCc5sccc5C4)n3)c(OC)c2)CC1

>  <inhibition>
36.6%

$$$$
>  <Compound>
CCN(CC)CC(=O)Nc1ccc(Nc2nccc(N3CCc4sccc4C3)n2)c(OC)c1

>  <inhibition>
20.3%

$$$$
